- Tested on: MCF7 breast
- assay.details: NCI-60 one-dose screen, 48 h (100 = growth as untreated, 0 = no growth, -100 = all killed)
- condition.details: 10 µM
- Procedure: Growth inhibition of the MCF7 human tumor cell line is measured as a screen for anti-cancer activity. Cells are grown in 96 well plates and exposed to the test compound for 48 hours. Compounds are tested at a single concentration, which is 10^-5 M for most compounds. The reported endpoint is percent growth (GI% or GIPRCNT), where numbers from 0 - 100% represent growth inhibition, and numbers from -100% - 0 represent cell death. For example, a value of 40 represents 60% growth inhibition. […]
About 83,000 compounds went through this panel and 20% of them were active in at least one assay; those are over-represented in the sample as a whole.
Each record here notes measured growth.
parameter: growth (%)

* CC/C=C\C[C@H](O)C/C=C1/C(=O)C=C[C@@H]1C/C=C\CCCC(=O)OCCS(=O)(=O)c1ccccc1 | 18.9
* COc1ccc(Cn2cc(Cn3cc(C=C4C(=O)NC(=O)NC4=O)c4ccccc43)nn2)cc1 | 75.8
* COc1ccc2[nH]c(O)c(N=NC(=O)c3oc4ccccc4c3C)c2c1 | 22.9
* CN1CCN(Cc2ccc(C(=O)Nc3cncc(C#Cc4cnc5cccnn45)c3)cc2C(F)(F)F)CC1 | 20.4
* NCCOc1ncccc1/C=C1\c2ccccc2-c2ccc(F)cc21 | 14.9
* O=C1c2cc(Cl)ccc2Oc2cc([N+](=O)[O-])ccc2N1c1ccc(F)cc1F | 86.6
* COC(=O)C1(C)COP(=O)(Nc2ccc(OC)cc2)OC1 (stereo unspecified) | 99.5
* COc1cc(C2C(C#N)=C(N)OC3=C2C(=O)c2ccccc2C3=O)cc(OC)c1O (stereo unspecified) | 20
* COc1cc(CNC(=O)c2ccsc2Nc2ccnc(C(F)(F)F)c2)ccc1O | 113
* O=C1/C(=C\c2ccc[nH]2)c2ccccc2N1c1ccccc1 | 19.5
* CC(C)(C)c1ccc(C2CC(=O)C3=C(C2)Nc2ccccc2N(C(=O)c2ccccc2Cl)C3c2ccc(F)cc2)cc1 (stereo unspecified) | -33.3
* N#Cc1c(N)nc2c(c1N)C(c1ccc(F)cc1)c1ccc(N)cc1O2 (stereo unspecified) | 98.9
* O=C1C(=O)c2c(ccc3ccccc23)-c2ccccc21 | -47.6
* NCCCNc1nc2ccccc2c2c(=O)c3cc(F)ccc3sc12 | -69.8
* COc1cc(/C=C/C(=O)c2c(C)nc3ccccc3c2/C=C/c2ccccc2)cc(OC)c1OC | 13.7
* O=c1oc2ccc(I)cc2c(=O)n1-c1ccc(I)cc1F | 2.88
* CCCSC1=NC2C(N(CC)C(=O)N2CC)N1/N=C/C=C/c1ccccc1[N+](=O)[O-] (stereo unspecified) | 21.8
* CCOc1cc2c(cc1OCC)C(c1cc(C)c(O)c(C)c1)NCC2 (stereo unspecified) | 89.1
* O=C(NC(=S)Nc1cccc(NC(=S)NC(=O)c2ccccc2)c1)c1ccccc1 | 58.3
* O=C(O)CCC(=O)c1ccc(C2CCCCCC2)cc1 | 96.6
* NC1(N2SC(S)=C3CCCC=C32)CCCCC1 | 95.4

* * *

- Tested on: LOX IMVI melanoma
- assay.details: NCI-60 one-dose screen, 48 h
- condition.details: 10 µM unless noted
Compounds without any hit were thinned out: in the full panel of roughly 83,000, 20% have a hit. Calls of active or inactive are those of the source. Rule for the calls: active = growth percent below 10; inactive = the rest.
Possible outcomes: 1 (yes) = active, 0 (no) = inactive

• O=C(NC1CCN(Cc2ccccc2)CC1)c1cc2nc(-c3ccc(Cl)s3)cc(C(F)(F)F)n2n1 = 0 (no)
• O=C1/C(=C/c2ccc(O)cc2)COc2ccc(O)cc21 = 0 (no)
• O=C(COc1cc(O)c2c(=O)cc(-c3ccccc3)oc2c1)Nc1ccccc1C(F)(F)F = 0 (no)
• COc1ccc(-c2nc(-c3ccccc3)c(-c3ccccc3)[nH]2)cc1OC1CCCCC1 = 0 (no)
• COc1ccc(OC)c(N(CCN2C(=O)c3ccccc3C2=O)C(=O)CCl)c1 = 1 (yes)
• CCOC(=O)c1ccc2[nH]c(-c3ccccc3)cc(=O)c2c1 = 0 (no)
• O=C(CN1C=NC2C(N3CCOCC3)=NC=NC21)c1cccc2ccccc12 (stereo not given) = 0 (no)
• COC(=O)C1=C(C)NC(C)=C(C(=O)OC)C(N2C(=O)CCC2=O)C1 (stereo not given) = 0 (no)
• COc1ccc(-c2nsc3c2NC(=O)CC3c2cccc(OC)c2)cc1 (stereo not given) = 0 (no)
• Cn1cc(-c2ccc3ncc(-c4ccc(CC(=O)Nc5cc(C(C)(C)C)no5)cc4)nc3c2)cn1 = 0 (no)
• O=C(Nc1ccc(C23CC4CC(CC(c5ccccc5)(C4)C2)C3)cc1)c1cccs1 = 0 (no)
• O=C(Nc1ccc(Br)cc1F)c1cc(I)ccc1O = 0 (no)
• COc1cc(CNC(=O)c2ccsc2Nc2ccnc(C(F)(F)F)c2)ccc1O = 0 (no)
• O=S(=O)(c1ccccc1)n1cc2c(c1-c1ccccc1)CCc1sc(Nc3ccccc3)nc1-2 = 0 (no)
• O=C(O)CCCN1C(=O)C2C3CCC(C3)C2C1=O (stereo not given) = 0 (no)
• CC(=O)c1ccc(Cc2ccc(C(C)=O)s2)s1 = 0 (no)
• CN1C(=O)N(C)C2C1NN=c1s/c(=C\c3ccc([N+](=O)[O-])cc3)c(=O)n12 (stereo not given) = 0 (no)
• CCN1C(=O)N(c2ccccc2)C2Nn3c(s/c(=C4\C(=O)N(C(C)C)c5ccccc54)c3=O)=NC21 (stereo not given) = 0 (no)
• COc1cc(-c2c3c(cn2S(=O)(=O)c2ccccc2)-c2nc(N)sc2CC3)cc(OC)c1OC = 0 (no)
• COc1cc(/C=C2\Oc3cc(OCCCN4CCCC4)ccc3C2=O)cc(OC)c1 = 1 (yes)
• COc1cc(/C=C2\CCC/C(=C\c3cc(CN4CCOCC4)c(O)c(OC)c3)C2=O)cc(CN2CCOCC2)c1O = 0 (no)
• COC(=O)c1c2c(c(C)[n+]([O-])c1C)C(=O)C=C(NCc1ccccc1)C2=O = 1 (yes)
• CCN1C(=O)N(CC)C2C1NN=c1s/c(=C3\C(=O)N(C(C)C)c4ccccc43)c(=O)n12 (stereo not given) = 0 (no)
• COc1cc(/C=C/C(=O)c2ccc(Cl)cc2)cc(CN2CCCCC2)c1O = 0 (no)
• COc1ccc2sc(N(Cc3cccnc3)C(=O)c3ccc(C#N)cc3)nc2c1 = 0 (no)
• COc1ccc(/C=C2\CCC/C(=C\c3ccc(OC)c(OC)c3)C2=O)cc1OC = 1 (yes)
• N#C/C(=C1\SC(=O)CN1c1ccccc1)c1nc2ccccc2s1 = 0 (no)
• O=C(Nc1ccc(Cl)cc1F)c1cc(Br)ccc1O = 0 (no)
• Fc1ccc(Oc2ccc(Nc3ncnc4onc(-c5ccccc5)c34)cc2)cc1 = 0 (no)
• COc1ccc(C2Nc3nc(OC)n(C)c(=O)c3N=C3c4ccccc4C(=O)C32)cc1 (stereo not given) = 0 (no)
• CN1C(=O)N(C)C2C1NN=c1s/c(=C\c3c[nH]c4ccccc34)c(=O)n12 (stereo not given) = 0 (no)
• CS(=O)(=O)Nc1ccc(C(=O)NC(C(=O)NO)c2ccc(-c3cccc(F)c3)cc2)cc1 (stereo not given) = 0 (no)
• CC(=O)Nc1nc2c(s1)CCc1c-2cn(S(=O)(=O)c2ccccc2)c1-c1ccccc1 = 0 (no)
• COc1cc(/C=C2\CN(C)C/C(=C\c3cc(CN4CCOCC4)c(O)c(OC)c3)C2=O)cc(CN2CCOCC2)c1O = 0 (no)
• COc1ccc(-c2nc(N3CCN(C(=O)C4CCCCC4)CC3)c3c4c(sc3n2)CCCC4)cc1 = 1 (yes)
• CN1C(=O)N(C)C2Nn3c(s/c(=C\c4ccc(Cl)cc4Cl)c3=O)=NC21 (stereo not given) = 0 (no)
• O=C(/C=C/c1ccc(Cl)cc1)c1ccc(Nc2nc(NCCO)nc(Nc3ccc(Cl)cc3)n2)cc1 = 0 (no)
• COc1ccc(C2=Nn3c(NN)nnc3SC2)cc1 = 0 (no)
• O=S1(=O)N(Cc2ccccc2)[C@@H](Cc2ccccc2)[C@H](O)[C@H](O)[C@H](Cc2ccccc2)N1Cc1ccccc1 = 1 (yes)
• CCN1C(=O)N(CC)C2Nn3c(s/c(=C\c4ccccc4F)c3=O)=NC21 (stereo not given) = 0 (no)
